Origin of values: ChEMBL document CHEMBL2034945

Entries and their pIC50
test system: A549; experiment: Cytotoxicity against human A549 cells by MTT assay; format: functional, cell-based
pIC50: −log10 of the molar value.
QUANTITY: pIC50

COMPOUND	VALUE_COMPARATOR	TEST_VALUE
COC(=O)[C@@]12OC[C@]34[C@H]([C@@H](O)[C@@H]1O)[C@@]1(C)CC(=O)[C@H](O)[C@@H](C)[C@@H]1C[C@H]3OC(=O)[C@H](OC(=O)C=C(C)C)[C@@H]24 [JAVANICOLIDE E]	=	5.20
COC(=O)[C@@]12OC[C@@]34[C@@H](CC5=C(C)C(=O)C(O)=C[C@]5(C)[C@H]3[C@@H](O)[C@@H]1O)OC(=O)[C@H](OC(=O)C=C(C)C)[C@@H]24 [DEHYDROBRUSATOL]	=	5.14
COC(=O)[C@@]12OC[C@]34[C@H]([C@@H](O)[C@@H]1O)[C@@]1(C)C[C@H](O)C(=O)[C@@H](C)[C@@H]1C[C@H]3OC(=O)[C@H](OC(=O)C=C(C)C)[C@@H]24 [JAVANICOLIDE H]	=	6.02
CC(=O)[C@@H]1C[C@H]2OC(=O)[C@H](OC(=O)C=C(C)C)[C@H]3[C@]4(C(=O)O)OC[C@]23[C@H]([C@@H](O)[C@@H]4O)[C@@]1(C)CC(=O)O [BRUCEANIC ACID F]	<	5.00
COC(=O)[C@@]12OC[C@]34[C@H]([C@@H](O)[C@@H]1O)[C@@](C)(CC(=O)O)[C@H](C(C)=O)C[C@H]3OC(=O)[C@H](OC(=O)C=C(C)C)[C@@H]24 [BRUCEANIC ACID E]	<	5.00
